Experiment: Cmax in Balb/c mouse at 50 mg/kg, po by mass spectrometry
Type: ADME, organism-based
Parameters: route oral, dose 50 mg/kg
Conditions: in vivo
OBSERVABLE: Cmax
Write down the value, and be sure its unit follows.

Returns the measured Cmax for the input molecule. Input: `O=C(CCCCCCn1cnc2c(N3CCOCC3)nc(-c3cccc(CO)c3)nc21)NO` 3.9 µM

----------
Assay: AUC (0 to infinity) in Balb/c mouse at 150 mg/kg, po by mass spectrometry
Assay type: ADME, organism-based
Set-up: route oral, time infinity, dose 150 mg/kg
Details: in vivo
OBSERVABLE: AUC(0-inf) (µM·h)
Write the answer as a number in µM·h, unit excluded.

What AUC(0-inf) value was documented for this compound, `O=C(CCCCCCn1cnc2c(N3CCOCC3)nc(-c3cccc(CO)c3)nc21)NO` ? 9.06

----------
Test: Cmax in Balb/c mouse at 150 mg/kg, po by mass spectrometry
Assay type: ADME, organism-based
Design: route oral, dose 150 mg/kg
Details: in vivo
OBSERVABLE: Cmax
Output should be the measured figure followed by the unit it is expressed in.

Could you tell me which Cmax is on file for `O=C(CCCCCCn1cnc2c(N3CCOCC3)nc(-c3cccc(CO)c3)nc21)NO` ? 10.1 µM

----------
Assay: Clearance in Balb/c mouse at 50 mg/kg, iv by mass spectrometry
Type: ADME, organism-based
Settings: in vivo
OBSERVABLE: clearance (mL/min/kg)
Provide the reading as a plain figure in mL/min/kg.

Which clearance reading was recorded for the compound `O=C(CCCCCCn1cnc2c(N3CCOCC3)nc(-c3cccc(CO)c3)nc21)NO` ? 110

----------
Test: AUC (0 to infinity) in Balb/c mouse at 50 mg/kg, iv by mass spectrometry
Format: ADME, organism-based
Set-up: route intravenous, time infinity, dose 50 mg/kg
Conditions: in vivo
OBSERVABLE: AUC(0-inf) (µM·h)
Provide the reading as a plain figure in µM·h.

What does the record list as AUC(0-inf) for `O=C(CCCCCCn1cnc2c(N3CCOCC3)nc(-c3cccc(CO)c3)nc21)NO` ? 16.7

----------
Assay: Volume of distribution at steady state in Balb/c mouse at 50 mg/kg, iv by mass spectrometry
Type: ADME, organism-based
Settings: in vivo, read-out: Vdss
OBSERVABLE: Vd

Need Vd of `O=C(CCCCCCn1cnc2c(N3CCOCC3)nc(-c3cccc(CO)c3)nc21)NO` , thanks. 3.06 L/kg

----------
Test: Oral bioavailability in Balb/c mouse at 150 mg/kg by mass spectrometry
Type: ADME, organism-based
Conditions: in vivo
OBSERVABLE: bioavailability (%)
Give your result in % as a bare value.

For the compound `O=C(CCCCCCn1cnc2c(N3CCOCC3)nc(-c3cccc(CO)c3)nc21)NO` , what bioavailability is on record? 18.1

----------
Assay: in vitro
Details: mouse, liver microsomes
OBSERVABLE: half-life at 1 h, 5 µM

If you can, please state the reported half-life at 1 h, 5 µM value of `Nc1ncc(-c2nc(N3CCOCC3)c3ncn(CCCCCCC(=O)NO)c3n2)cn1` . > 1 h
